target: UniProt Q64663; assay: Ca2+ flux (FLIPR) in 1321N1 cells expressing recombinant rat P2X7 channel; conditions: 250 μM BzATP
readout-label: pIC50
Give bare numbers, as −log10 of the molar value.

Past entries and their recorded results:
Cc1cccc(C)c1CN1C(=O)c2nnc(-c3cnccn3)n2C[C@@H]1C = 5.81
C[C@H]1Cn2c(nnc2-c2cnccn2)C(=O)N1Cc1cccc(C(F)(F)F)c1 = 5.22
C[C@H]1Cn2c(nnc2-c2cccnn2)C(=O)N1Cc1cccc(C(F)(F)F)c1Cl = 4.70

List pIC50 for every entry below, keeping the order given.
1. C[C@H]1Cn2c(nnc2-c2cnccn2)C(=O)N1Cc1cc([N+](=O)[O-])ccc1Cl
2. COc1ccnc(-c2nnc3n2C[C@H](C)N(Cc2cccc(C(F)(F)F)c2Cl)C3=O)c1

1: 4.70; 2: 7.97

Data request, read-out pIC50, for C[C@H]1Cn2c(nnc2-c2ccccn2)C(=O)N1Cc1cccc(C(F)(F)F)c1Cl
6.50

----------
biological target: UniProtKB Q99572; assay: Ca2+ flux (FLIPR) in 1321N1 cells expressing recombinant human P2X7 channel; assay type: cell-based; conditions: 250 μM BzATP
Sequence (Q99572 whole entry): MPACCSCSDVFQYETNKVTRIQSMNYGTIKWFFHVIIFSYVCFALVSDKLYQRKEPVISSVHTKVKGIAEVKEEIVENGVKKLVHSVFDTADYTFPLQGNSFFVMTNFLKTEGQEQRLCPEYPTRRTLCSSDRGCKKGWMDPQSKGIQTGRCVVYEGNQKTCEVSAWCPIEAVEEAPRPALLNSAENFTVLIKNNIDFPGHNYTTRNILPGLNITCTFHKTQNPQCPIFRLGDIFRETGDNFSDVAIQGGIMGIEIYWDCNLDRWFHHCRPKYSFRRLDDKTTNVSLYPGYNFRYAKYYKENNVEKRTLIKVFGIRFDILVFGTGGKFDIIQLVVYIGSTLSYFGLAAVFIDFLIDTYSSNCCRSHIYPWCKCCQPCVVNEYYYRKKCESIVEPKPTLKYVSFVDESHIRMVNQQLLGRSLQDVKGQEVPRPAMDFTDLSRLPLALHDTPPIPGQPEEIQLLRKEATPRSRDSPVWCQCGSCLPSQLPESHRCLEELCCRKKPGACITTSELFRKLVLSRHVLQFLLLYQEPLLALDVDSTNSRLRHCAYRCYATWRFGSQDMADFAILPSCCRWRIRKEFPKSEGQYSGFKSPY
For each entry below, report its pIC50 value.
Give bare numbers, as −log10 of the molar value.

Past entries and their recorded results:
C[C@H]1Cn2c(nnc2-c2ncco2)C(=O)N1Cc1cccc(C(F)(F)F)c1Cl = 8.49
O=C1c2nnc(-c3ccc(F)cc3)n2CCN1Cc1cccc(C(F)(F)F)c1Cl = 6.83
C[C@H]1Cn2c(nnc2-c2cnccn2)C(=O)N1Cc1cc(N)ccc1Cl = 5.91
C[C@H]1Cn2c(nnc2-c2ncc(F)cn2)C(=O)N1Cc1cccc(C(F)(F)F)c1Cl = 9.00
C[C@H]1Cn2c(nnc2-c2cnccn2)C(=O)N1Cc1cc([N+](=O)[O-])ccc1Cl = 6.00
O=C1c2nnc(-c3ccccn3)n2CCN1Cc1cccc(Cl)c1Cl = 6.83
C[C@H]1Cn2c(nnc2C2CC2)C(=O)N1Cc1cccc(C(F)(F)F)c1Cl = 6.43

In the following, a different molecule is considered.
Data request, read-out pIC50, for C[C@H]1Cn2c(nnc2-c2nccs2)C(=O)N1Cc1cccc(C(F)(F)F)c1Cl
8.92

----------
molecular target: UniProt Q64663; experiment: Ca2+ flux (FLIPR) in 1321N1 cells expressing recombinant rat P2X7 channel; settings: 250 μM BzATP
For each entry below, report its pIC50 value.
One number for each entry, as −log10 of the molar value.

Past entries and their recorded results:
C[C@H]1Cn2c(nnc2-c2ccn(C)n2)C(=O)N1Cc1cccc(C(F)(F)F)c1Cl [Example 23] = 5.91
C[C@H]1Cn2c(nnc2-c2cnccn2)C(=O)N1Cc1cc(N)ccc1Cl [Example 91] = 4.72

Please provide the recorded pIC50 for Cc1cccc(-c2nnc3n2C[C@H](C)N(Cc2cccc(C(F)(F)F)c2Cl)C3=O)n1 [Example 46] , tested on UniProt Q64663.
6.81

----------
target: rat P2X7 (Rattus norvegicus (Rat)); experiment: Ca2+ flux (FLIPR) in 1321N1 cells expressing recombinant rat P2X7 channel; details: 250 μM BzATP
Sequence (Q64663 whole entry): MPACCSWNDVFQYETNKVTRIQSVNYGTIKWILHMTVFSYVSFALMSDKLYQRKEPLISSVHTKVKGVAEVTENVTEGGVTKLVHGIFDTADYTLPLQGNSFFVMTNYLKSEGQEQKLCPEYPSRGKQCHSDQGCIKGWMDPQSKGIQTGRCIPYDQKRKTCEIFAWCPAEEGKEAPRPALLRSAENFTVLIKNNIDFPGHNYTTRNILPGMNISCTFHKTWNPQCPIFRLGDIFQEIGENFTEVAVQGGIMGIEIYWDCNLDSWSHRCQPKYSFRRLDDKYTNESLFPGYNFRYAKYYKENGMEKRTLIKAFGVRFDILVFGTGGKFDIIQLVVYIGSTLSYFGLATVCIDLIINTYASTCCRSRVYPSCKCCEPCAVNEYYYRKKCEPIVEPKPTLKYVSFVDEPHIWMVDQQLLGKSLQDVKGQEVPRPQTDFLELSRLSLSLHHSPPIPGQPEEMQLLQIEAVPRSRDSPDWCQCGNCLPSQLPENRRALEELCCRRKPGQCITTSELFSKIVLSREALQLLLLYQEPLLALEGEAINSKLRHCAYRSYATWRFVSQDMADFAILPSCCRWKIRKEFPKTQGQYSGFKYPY
readout-label: IC50 (µM)
One number for each entry, in µM.

C[C@H]1Cn2c(nnc2-c2cncc(F)c2)C(=O)N1Cc1cccc(C(F)(F)F)c1Cl = 12.6

List IC50 for every entry below, keeping the order given.
1. C[C@H]1Cn2c(nnc2-c2cnccn2)C(=O)N1Cc1ccccc1Cl
2. O=C1c2nnc(-c3ncc(F)cn3)n2CC(C2CC2)N1Cc1cccc(C(F)(F)F)c1Cl (racemic)

41.4
0.794

Please provide the recorded IC50 for C[C@H]1Cn2c(nnc2-c2cnccn2)C(=O)N1Cc1ccccc1OC(F)(F)F , tested on rat P2X7 (Rattus norvegicus (Rat)).
11.1
